Listing: T/C of selected compounds
Tested on: P388 leukemia ip, CD2F1 mice, survival T/C
Assay: NCI In Vivo Anticancer Drug Screen. Data for tumor model P388 Leukemia (intraperitoneal) in CD2F1 (CDF1) mice
Conditions: endpoint: median survival time; dose: 120.0 mg/kg/injection; schedule: Q01DX005 (ip); vehicle: Klucel (hydroxypropylcellulose) (HPC); higher = longer survival
Experimental: The antitumor activity of compounds was measured in mice bearing transplantable tumors. Survival or tumor size were measured and the results are expressed as the measurement made in the treated group (T) divided by the measurement made in the vehicle treated control group (C). The tumor model used in this assay is P388 Leukemia (intraperitoneal) in CD2F1 (CDF1) mice
Toxic doses and inconclusive results are not listed.

Recorded T/C, per entry:
The compound CC1C=CC(C)S(=O)N1C(=O)Cc1ccccc1 (centres undefined) showed T/C equal to 106 % of control

The compound `CCO/C=C1\N=C(C(O)(c2ccc(Cl)cc2)c2ccc(Cl)cc2)OC1=O` showed T/C equal to 92 % of control

The compound `COC(=O)N1CCCc2ccc3c(OC)c(OC)cc(c3c2)CC1` showed T/C equal to 100 % of control

Now for a further compound.
The compound `CCCCCCCCCc1cc(=O)[nH]c(=S)[nH]1` showed T/C equal to 100 % of control
